Entry source: PubChem BioAssay (NCI)

experiment: NCI Yeast Anticancer Drug Screen. Data for the mec2-1 strain (AID 157); conditions: S. cerevisiae mec2-1 strain, at 50.0 µM, active compounds read high
About 79,000 compounds went through this panel and 15% of them were active in at least one assay; those are over-represented in the sample as a whole.
Listing: growth inhibition of selected compounds

{"Compound": "Cn1c(=O)c2c(nc3sc4ccccc4c(=O)n32)n(C)c1=O", "Measure unit": "%", "growth inhibition": -9.05}
{"Compound": "CN(C)NC(=S)NC12CC3CC(CC(C3)C1)C2", "Measure unit": "%", "growth inhibition": -5.25}
{"Compound": "C1CCN(CCC2CCNCC2)C1", "Measure unit": "%", "growth inhibition": -19.4}
{"Compound": "O=c1[nH]c2cc(Br)c(Br)cc2c2ccc(Br)cc12", "Measure unit": "%", "growth inhibition": -3.8}
{"Compound": "CC1=NN2C(c3ccc(Cl)cc3)=CSC2=NC(C)(C)C1", "Measure unit": "%", "growth inhibition": -16.9}
{"Compound": "CCOc1cc(=O)cc2n(-c3cc(OCC)c(OC)c(OCC)c3)c3ccccc3nc1-2", "Measure unit": "%", "growth inhibition": 11.7}
{"Compound": "COC1=C(O)C(=O)N(C)C(=O)C1", "Measure unit": "%", "growth inhibition": 9.35}
{"Compound": "CCN(CC)C(=O)COc1ccc(Cl)cc1C(C)C", "Measure unit": "%", "growth inhibition": -16.8}
{"Compound": "Cc1nc2[nH]ncn2c(=O)c1CCCl", "Measure unit": "%", "growth inhibition": -31.9}
{"Compound": "CCOC(=O)/C(C)=C1\\N=C(c2ccccc2)OC(=NC2CCCCC2)N1C1CCCCC1", "Measure unit": "%", "growth inhibition": -4.8}
{"Compound": "COc1ccc2nc(-c3ccccc3)cc(N=[N+]=[N-])c2c1", "Measure unit": "%", "growth inhibition": -0.85}
{"Compound": "O=NN(CCCl)C(=O)NCCc1cccc[n+]1[O-]", "Measure unit": "%", "growth inhibition": 14.3}
{"Compound": "COc1c(Cl)c(Cl)c2ncc(Cl)cc2c1Cl", "Measure unit": "%", "growth inhibition": -3.3}
{"Compound": "CC(=O)Nc1cc2cc(N=CN(C)C)ccc2oc1=O", "Measure unit": "%", "growth inhibition": -43.4}
{"Compound": "CSC(=S)c1ccc(NSc2ccccc2[N+](=O)[O-])cc1", "Measure unit": "%", "growth inhibition": 23.6}
{"Compound": "COc1cc(O)c2c(c1)C(=O)C1=C(C2=O)C(O)C[C@@](C)(O)C1 (stereo partly specified)", "Measure unit": "%", "growth inhibition": 90.2}
{"Compound": "Cc1ccccc1C(OCCN(C)C)c1ccccc1 (stereo unspecified)", "Measure unit": "%", "growth inhibition": -44.8}
{"Compound": "CC1(C)SCCNC1=O", "Measure unit": "%", "growth inhibition": 8.45}
{"Compound": "NCC(=O)N[C@H]1c2ccsc2/C(=N/O)[C@H]1O", "Measure unit": "%", "growth inhibition": 5.95}
{"Compound": "Cc1cc2ccccc2c[n+]1C1CCc2ccccc2C1=O (stereo unspecified)", "Measure unit": "%", "growth inhibition": 5.6}
{"Compound": "C=C(C)C(O)CC (stereo unspecified)", "Measure unit": "%", "growth inhibition": -30.7}
{"Compound": "COc1ccc(OC)c(C2SCC(=O)N2c2nncs2)c1 (stereo unspecified)", "Measure unit": "%", "growth inhibition": 6}
{"Compound": "c1ccc(CN2CCCNCC2)cc1", "Measure unit": "%", "growth inhibition": -1.4}
{"Compound": "Oc1c(Br)cc(Br)cc1/C=N/N=C/c1cc(Br)cc(Br)c1O", "Measure unit": "%", "growth inhibition": -20}
{"Compound": "COc1cc(-c2cccs2)sc1-c1cccs1", "Measure unit": "%", "growth inhibition": -7.15}
{"Compound": "Cc1ccc(NC(=O)Oc2ccc(C#N)cc2)cc1Cl", "Measure unit": "%", "growth inhibition": 5.85}
